Tested target: T1, His-tagged P3028 (human, also: His-tag, terminus and sequence not given here)
T1 construct: in solution at 0.5 ug/mL over the peptide cards; found with anti-His-tag antibody and rabbit anti-mouse peroxidase (rampo); also called PGE73; not shown: His-tag
T1 peptide: VFDEFKPLVEEPQNLIK
Assay text: PEPSCAN chip ELISA, His-P3028 in solution;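 also: score is the raw OD at 405 nm from peroxidase colour with ABTS, imaged by CCD camera before and after staining, with wells showing air bubbles set to zero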
No end group written: not given here.

>  <Binder>
KKLDTFFVKLSLQTER [SEQ ID NO 23]

>  <RAMPO Score [rampo score]>
1140

$$$$
>  <Binder>
KKIDTFFVKLSLFTER [SEQ ID NO 289]

>  <RAMPO Score [rampo score]>
454

$$$$
>  <Binder>
KKLDTFFVKLSLFMER [SEQ ID NO 381]

>  <RAMPO Score [rampo score]>
501

$$$$

Reference source for all entries: patent US20170298096A1
